test system: A498; test: NCI tumour cell line growth inhibition, 48 h
The source made the active and inactive calls. No stated cut-off is given here; in the data, active = GI50 up to about 1.1 µM and inactive = higher.
The reply should be one of these categories: yes (1) = active, no (0) = inactive

QUERY: Any idea what this test logged for CCOC(=O)c1csc(NC(=O)CCN(CC)CC)n1 ?
RESULT: no (0)

QUERY: Now give it for Cc1ccc(S(=O)(=O)NCCCCC(N)C(=O)O)cc1 (stereo unspecified) too.
RESULT: no (0)

QUERY: Now give it for N=C(N)Nc1ncccc1[N+](=O)[O-] too.
RESULT: no (0)

QUERY: Now give it for Cc1ccc(S(=O)(=O)N/N=C(\c2nc3ccc([N+](=O)[O-])cc3nc2O)C(O)c2ccccc2Cl)cc1 (stereo unspecified) too.
RESULT: no (0)

QUERY: Now give it for O=c1[nH]c2c(S)nc(O)nc2n1-c1ccccc1 too.
RESULT: no (0)

QUERY: Now give it for NC(=O)C(c1ccccc1)N1OC2C(=O)N(Cc3ccccc3)C(=O)C2C1c1cccc(Oc2ccc(Cl)cc2)c1 (stereo unspecified) too.
RESULT: no (0)

QUERY: Now give it for CO[C@@](c1ccccc1)(c1nc(C#N)c(N)o1)C(F)(F)F too.
RESULT: no (0)

QUERY: Now give it for C[C@]12CC(c3ccccc3O1)C(C#N)C(=O)N2 (stereo partly specified) too.
RESULT: no (0)

QUERY: Now give it for Cc1nc2c(=O)n(-c3ccccc3)c3ccccc3c2o1 too.
RESULT: no (0)

QUERY: Now give it for N=C(N)N/N=C/c1c(-c2ccc(Cl)c([N+](=O)[O-])c2)nc2sccn12 too.
RESULT: no (0)

QUERY: Now give it for Cc1ccc(S(=O)(=O)NC(=O)Nc2nc[nH]n2)cc1 too.
RESULT: no (0)

QUERY: Now give it for C(=N/Nc1ccc(-c2nc3ccccc3[nH]2)cc1)/c1c(-c2ccccc2)[nH]c2ccccc12 too.
RESULT: yes (1)

QUERY: Now give it for C=C1C(=O)OC2C=C(CCC(C)=O)C(C)C(OC(C)=O)CC12 (stereo unspecified) too.
RESULT: no (0)

QUERY: Now give it for COc1cc2c(c3c1c(=O)c1ccccc1n3C)C=C([N+](=O)[O-])C(C)(C)O2 too.
RESULT: yes (1)

QUERY: Now give it for C#CCNC(Cc1ccccc1)C(=O)O (stereo unspecified) too.
RESULT: no (0)

QUERY: Now give it for CC(C)(CN)CN too.
RESULT: no (0)

---

system: NCI-H226; assay: NCI tumour cell line growth inhibition, 48 h
The source made the active and inactive calls. Rule as the data show it: active = GI50 up to about 1.1 µM and inactive = higher.
The reply should be one of these categories: active, inactive

QUERY: Any idea what this test logged for Cc1cc(C)c2c(c1C)CN1CN2Cc2c(C)c(C)cc(C)c21 ?
RESULT: inactive

QUERY: Now give it for CC(/C=C/C(=O)NO)=C\C(C)C(=O)c1ccc(N(C)C)cc1 (centres undefined) too.
RESULT: active

QUERY: Now give it for Cc1cc(C)cc(C(=N)c2ccccc2Cc2cccc3ccccc23)c1 too.
RESULT: inactive

QUERY: Now give it for O=c1[nH]c2c(S)nc(O)nc2n1-c1ccccc1 too.
RESULT: inactive

QUERY: Now give it for Cc1cc(=O)oc2c1cc(OCC(=O)OCCN1CCCCC1)c1occ(C)c12 too.
RESULT: inactive

QUERY: Now give it for COc1ccc([C@H]2[C@H]3COC(=O)[C@H]3C(C#N)=C3Sc4ccccc4N32)cc1 too.
RESULT: inactive

QUERY: Now give it for O=c1[nH]/c(=C/c2ccc(OCc3ccccc3)cn2)c(=O)[nH]/c1=C/c1ccc(Cl)cc1 too.
RESULT: inactive

QUERY: Now give it for Cc1c(C)c2c(c(N)c1C#N)C(=O)N(O)C2=O too.
RESULT: inactive

QUERY: Now give it for CC1=C2c3ccccc3N(S(=O)(=O)c3ccccc3)[C@H]2[C@H](C(=O)N2C3CC4CC[C@@]3(CS2(=O)=O)C4(C)C)CC1 (some centres undefined) too.
RESULT: inactive

QUERY: Now give it for CC1(C)OC(C[C@]2(C#N)C[C@H](CCl)OC(C)(C)O2)C[C@@H](C[C@]2(C#N)C[C@H](CCl)OC(C)(C)O2)O1 (some centres undefined) too.
RESULT: inactive

QUERY: Now give it for CC(C)NC(=O)OCc1c(COC(=O)NC(C)C)c(-c2ccc[n+](COC(=O)C3CC3)c2)n2c1CCC2 too.
RESULT: inactive

QUERY: Now give it for O=c1c(Cc2c(O)oc3cc(O)ccc3c2=O)c(O)oc2cc(O)ccc12 too.
RESULT: inactive

QUERY: Now give it for N#CC(c1cc(Cl)ncn1)c1nc2ccccc2s1 (centres undefined) too.
RESULT: inactive

QUERY: Now give it for N/N=C(\c1nc2ccc(Cl)cc2nc1O)C(O)c1ccc(Cl)c(Cl)c1 (centres undefined) too.
RESULT: inactive

QUERY: Now give it for CC(=O)OC1COC(Nn2c(=O)[nH]c3ccccc3c2=O)C(OC(C)=O)C1OC(C)=O (centres undefined) too.
RESULT: inactive

QUERY: Now give it for C#CC(O)/C=C/C(O)CCCC(O)CC#CC(O)C#CC(O)CCCC(O)/C=C/CCCCCC(=O)CCCCCCCCCCCCCC(O)C(O)C#CC(=O)O (centres undefined) too.
RESULT: inactive

QUERY: Now give it for COc1ccc(/C(=N/N=c2[nH]c3ccccc3[nH]2)C(=O)O)cc1 too.
RESULT: inactive

QUERY: Now give it for N=C(N)C1=C(O)NC(=O)N(C2CCCCC2)C1 too.
RESULT: inactive

QUERY: Now give it for COc1cccc(C2c3cc4c(cc3OC(NNc3ccccc3)C2C)OCO4)c1OC (centres undefined) too.
RESULT: inactive

QUERY: Now give it for Cc1c2c(cc3c1[nH]c1ccccc13)C=NCC2 too.
RESULT: inactive

QUERY: Now give it for COC(=O)CCSC(=O)Nc1ccccc1Cl too.
RESULT: inactive

QUERY: Now give it for NS(=O)(=O)c1ccc(/N=N/c2cnc(O)c(O)c2)cc1 too.
RESULT: inactive

QUERY: Now give it for Cc1ccc(/C=N/NS(=O)(=O)c2ccccc2)cc1 too.
RESULT: inactive

QUERY: Now give it for Cc1cc(/N=C/c2ccc(F)cc2)n(-c2ccccc2)n1 too.
RESULT: inactive

---

test system: KM-20L2; assay: NCI tumour cell line growth inhibition, 48 h
Calls of active or inactive are those of the source. Rule as the data show it: active = GI50 up to about 1.1 µM and inactive = higher.
The reply should be one of these categories: yes (1) for active, no (0) for inactive

QUERY: Any idea what this test logged for COC(=O)CCSC(=O)Nc1ccccc1Cl ?
RESULT: no (0)

QUERY: Now give it for OCCNCN(CNCCO)c1nc(N(CNCCO)CNCCO)nc(N(CNCCO)CNCCO)n1 too.
RESULT: yes (1)

QUERY: Now give it for CC[C@@]1(OC(=O)C(N)CCCCN)C(=O)OCc2c1cc1n(c2=O)Cc2cc3ccccc3nc2-1 (some centres not stated) too.
RESULT: yes (1)

QUERY: Now give it for C/N=c1/ssc(=S)n1C(C)C too.
RESULT: no (0)

QUERY: Now give it for Nc1nc(SCCNC(=O)CCc2ccc(O)c(I)c2)nc2c1ncn2C1OC(CO)C(O)C1O (configuration not stated) too.
RESULT: no (0)

QUERY: Now give it for CN(C)CCNC(=O)c1cccc2cc3ccc4ccccc4c3nc12 too.
RESULT: yes (1)

QUERY: Now give it for CCN(CC)CC1c2ccccc2C(CNc2ccccc2)N1C (configuration not stated) too.
RESULT: no (0)

---

test system: MOLT-4; assay: NCI tumour cell line growth inhibition, 48 h
Calls of active or inactive are those of the source. Cut-off read from the data, not from the text of the source: active = GI50 up to about 1.1 µM and inactive = higher.
The reply should be one of these categories: active, inactive

QUERY: Any idea what this test logged for CC(C)N(c1cc2c(cc1F)c(=O)c(C(=O)O)cn2-c1ccc(N2CCN(C)CC2)cn1)C(C)C ?
RESULT: inactive

QUERY: Now give it for Cc1cc(-c2nc3ccccc3s2)ccc1NS(=O)(=O)O too.
RESULT: inactive

QUERY: Now give it for Cc1ccc(S(=O)(=O)NC(=O)Nc2nc[nH]n2)cc1 too.
RESULT: inactive

QUERY: Now give it for CCOC(=O)C(NC(=O)CC)(Nc1ccccc1OC)C(F)(F)F (centres undefined) too.
RESULT: inactive

QUERY: Now give it for COC(=O)c1c(O)ccc2c1c1c(n2Cc2ccc(Cl)cc2Cl)C(=O)c2ccccc2C1=O too.
RESULT: inactive

QUERY: Now give it for CC(=O)NC1=C[C@@H]([C@H]2COC(C)(C)O2)OC1=O too.
RESULT: inactive

QUERY: Now give it for CC1C/C(=C\c2ccc(OC(=O)C(C)(C)C)cc2)C(=O)/C(=C/c2ccc(OC(=O)C(C)(C)C)cc2)C1 (centres undefined) too.
RESULT: inactive

QUERY: Now give it for O=C1CS/C(=N/N=C/c2cn(Cc3ccc(Cl)cc3Cl)c3ccccc23)N1 too.
RESULT: inactive

QUERY: Now give it for O=C1/C(=C/c2ccc(Cl)cc2)CCCc2ccccc21 too.
RESULT: inactive

QUERY: Now give it for Nc1ccn([C@@H]2C=C(CO)[C@@H](O)[C@H]2O)c(=O)n1 too.
RESULT: active

QUERY: Now give it for CCCCCCCCCC[C@H](O)[C@H](O)CC[C@@H](O)[C@H]1CC[C@@H]([C@H]2CC[C@H](CCCCCCC[C@@H](O)CC3=C[C@H](C)OC3=O)O2)O1 too.
RESULT: inactive

QUERY: Now give it for N=C(N)Nc1ncccc1[N+](=O)[O-] too.
RESULT: inactive

QUERY: Now give it for CCN1CCN=C2c3cc(OC)ccc3Nc3c([N+](=O)[O-])ccc1c32 too.
RESULT: active

QUERY: Now give it for O=c1[nH]c2ccccc2nc1CBr too.
RESULT: inactive

QUERY: Now give it for C[C@]12CC[C@H](OCCC#N)CC1=CC[C@@H]1C2CC[C@]2(C)/C(=N/OCCC#N)CCC12 (some centres undefined) too.
RESULT: inactive

QUERY: Now give it for CC1N[B@@-](C)(c2ccc(C(F)(F)F)cc2)OC1c1ccccc1 (some centres undefined) too.
RESULT: inactive

QUERY: Now give it for Cc1c2c(n(Cc3ccccn3)c1C)NN=C(C#N)S2(=O)=O too.
RESULT: inactive

QUERY: Now give it for C#CCn1c(=O)c2cccnc2n(CC#C)c1=O too.
RESULT: inactive

QUERY: Now give it for Cc1c(C)c2c(c(N)c1C#N)C(=O)N(O)C2=O too.
RESULT: inactive

QUERY: Now give it for Nc1nc(SCCNC(=O)CCc2ccc(O)c(I)c2)nc2c1ncn2C1OC(CO)C(O)C1O (centres undefined) too.
RESULT: inactive

QUERY: Now give it for Cc1ccc(C)n2c1nc1cc3ccccc3cc12 too.
RESULT: inactive

QUERY: Now give it for CCCNc1c(Cl)cc(Cl)c2[nH]c3ccccc3c(=O)c12 too.
RESULT: inactive

QUERY: Now give it for Cc1cccc(/N=C/c2ccc(N(CCC#N)S(=O)(=O)c3ccccc3)cc2C)c1 too.
RESULT: inactive

QUERY: Now give it for CC(=O)OC[C@@H]1[C@H]2CC(=O)O[C@H]2C[C@H]1OC(C)=O too.
RESULT: inactive

QUERY: Now give it for CCOC(=O)c1csc(NC(=O)CCN(CC)CC)n1 too.
RESULT: inactive

QUERY: Now give it for CC(C)(CN)CN too.
RESULT: inactive

QUERY: Now give it for CN(C)c1ccc(/C=C(\NC(=O)c2ccccc2)C(=O)NCC(=O)O)cc1 too.
RESULT: inactive

QUERY: Now give it for CC1CN=C(N(Cc2ccccc2)C(=O)Nc2ccc(Cl)c(Cl)c2)S1 (centres undefined) too.
RESULT: inactive

QUERY: Now give it for CC1=NN(c2nc(N)nc(CF)n2)C(C)(C)C1 too.
RESULT: inactive
